# Tested on: 1a-H77 replicon cells
# test_name: HCV 1a replicon inhibitory activity (Renilla luciferase)
# Assay type: cell-based, hepatitis C virus
# condition_details: Hepatitis C virus, 48 h, read-out: IC50 value (95% Confidence Intervals) pM Replicon 1A assay
Where a name gives a salt, the structure may show the parent alone.
Assign IC50 to each entry below.
Kindly provide the numeric value in pM only, without the unit symbol.

Short answer for COC[C@H](NC(=O)OC)C(=O)N1CCC[C@H]1c1ncc(-c2ccc3nc(-c4ccc(-c5c[nH]c([C@@H]6CCCN6C(=O)[C@@H](NC(=O)OC)C(C)C)n5)cc4)cnc3c2)[nH]1 [Example 69, trifluoroacetic acid salt] : IC50 was 22.3

Short answer for COC(=O)N[C@H](C(=O)N1CCC[C@H]1c1nc(-c2ccc(-c3cnc4cc(-c5cnc([C@@H]6CCCN6C(=O)[C@@H](Cc6ccccc6)NC(=O)OC)[nH]5)ccc4n3)cc2)c[nH]1)C(C)C [Example 62, trifluoroacetic acid salt] : IC50 was 2570

Short answer for COC(=O)N[C@H](C(=O)N1CCC[C@H]1c1nc(-c2ccc(-c3cnc4cc(-c5cnc([C@@H]6CCCN6C(=O)CNC(=O)c6cnc(C)cn6)[nH]5)ccc4n3)cc2)c[nH]1)C(C)C [Example 41, trifluoroacetic acid salt] : IC50 was 1950

Short answer for COC(=O)N[C@@H](CCc1ccccc1)C(=O)N1CCC[C@H]1c1ncc(-c2ccc3nc(-c4ccc(-c5c[nH]c([C@@H]6CCCN6C(=O)[C@@H](NC(=O)OC)C(C)C)n5)cc4)cnc3c2)[nH]1 [Example 79, trifluoroacetic acid salt] : IC50 was 47.6

====

# System: 1a-H77 replicon cells
# test_name: HCV 1a replicon inhibitory activity (Renilla luciferase)
# Format: cell-based, hepatitis C virus
# condition_details: Hepatitis C virus; geometric mean, 95% confidence intervals in parentheses; 48 hours; medium with 10% FCS; read-out: IC50 value (95% Confidence Intervals) pM Replicon 1A assay
Assign IC50 to each entry below.
Kindly provide the numeric value in pM only, without the unit symbol.

Lab entry: 1a-H77 replicon cells assay, compound COC(=O)N[C@H](C(=O)N1CCC[C@H]1c1nc(-c2ccc(-c3cc4ccc(-c5cnc([C@@H]6CCCN6C(=O)[C@@H](NC(=O)OC)C(C)C)[nH]5)cc4cn3)nc2)c[nH]1)C(C)C [Example 11] , IC50 = 42.1

Lab entry: 1a-H77 replicon cells assay, compound COC(=O)N[C@H](C(=O)N1CCC[C@H]1c1nc(-c2ccc(-c3cnc4cc(-c5cnc([C@@H]6CCCN6C(=O)[C@@H](NC(=O)OC)C(C)C)[nH]5)cnc4c3)cc2)c[nH]1)C(C)C [Example 19] , IC50 = 468

Lab entry: 1a-H77 replicon cells assay, compound CCOc1nc(-c2ccc(-c3cnc([C@@H]4CCCN4C(=O)[C@@H](NC(=O)OC)C(C)C)[nH]3)cc2)nc2ccc(-c3cnc([C@@H]4CCCN4C(=O)[C@@H](NC(=O)OC)C(C)C)[nH]3)cc12 [Example 16] , IC50 = 35.3

Lab entry: 1a-H77 replicon cells assay, compound COC(=O)NC(C(=O)N1CCC[C@H]1c1ncc(-c2ccc3nc(-c4ccc(-c5c[nH]c([C@@H]6CCCN6C(=O)[C@@H](NC(=O)OC)C(C)C)n5)cc4)cnc3c2)[nH]1)C1CCOCC1 (stereo partly shown) [Example 71] , IC50 = 30.7

Lab entry: 1a-H77 replicon cells assay, compound COC(=O)N[C@H](C(=O)N1CCC[C@H]1c1nc(-c2cnc(-c3cc4ccc(-c5cnc([C@@H]6CCCN6C(=O)[C@@H](NC(=O)OC)C(C)C)[nH]5)cc4cn3)nc2)c[nH]1)C(C)C [Example 22] , IC50 = 2190

Lab entry: 1a-H77 replicon cells assay, compound CC[C@H](NC(=O)OC)C(=O)N1CCC[C@H]1c1ncc(-c2ccc(-c3ccc4cc(-c5cnc([C@@H]6CCCN6C(=O)[C@H](CC)NC(=O)OC)[nH]5)ccc4c3)cc2)[nH]1 [Example 25] , IC50 = 88.8

Lab entry: 1a-H77 replicon cells assay, compound CC[C@H](NC(=O)OC)C(=O)N1CCC[C@H]1c1nc(-c2ccc(-c3cnc4cc(-c5cnc([C@@H]6CCCN6C(=O)[C@H](CC)NC(=O)OC)[nH]5)cnc4c3)cc2)c[nH]1 [Example 12] , IC50 = 3100

Lab entry: 1a-H77 replicon cells assay, compound CC[C@H](NC(=O)OC)C(=O)N1CCC[C@H]1c1ncc(-c2ccc3cc(-c4ccc(-c5cnc([C@@H]6CCCN6C(=O)[C@@H](NC(=O)OC)C(C)C)[nH]5)cc4)ccc3c2)[nH]1 [Example 26] , IC50 = 64.1

Lab entry: 1a-H77 replicon cells assay, compound COC(=O)N[C@H](C(=O)N1CCC[C@H]1c1ncc(-c2ccc(-c3cnc4cc(-c5cnc([C@@H]6CCCN6C(=O)[C@@H](NC(=O)OC)C(C)C)[nH]5)ccc4n3)nc2)[nH]1)C(C)C [Example 9] , IC50 = 42.9

Lab entry: 1a-H77 replicon cells assay, compound COC(=O)N[C@H](C(=O)N1CCC[C@H]1c1ncc(-c2ccc(-c3ncc4cc(-c5cnc([C@@H]6CCCN6C(=O)[C@@H](NC(=O)OC)C(C)C)[nH]5)ccc4n3)nc2)[nH]1)C(C)C [Example 20] , IC50 = 1720

Lab entry: 1a-H77 replicon cells assay, compound COC(=O)N[C@H](C(=O)N1CCC[C@H]1c1nc(-c2ccc3nc(-c4ccc(-c5cnc([C@@H]6CCCN6C(=O)[C@@H](NC(=O)OC)C(C)C)[nH]5)cc4)ccc3c2)c[nH]1)C(C)C [Example 3] , IC50 = 74.6

Lab entry: 1a-H77 replicon cells assay, compound COC(=O)N[C@H](C(=O)N1CCC[C@H]1c1ncc(-c2ccc(-c3ccc4cc(-c5cnc([C@@H]6CCCN6C(=O)[C@@H](NC(=O)OC)C(C)C)[nH]5)ccc4c3)cc2)[nH]1)C(C)C [Example 2] , IC50 = 22.3

Lab entry: 1a-H77 replicon cells assay, compound COC(=O)N[C@H](C(=O)N1CCC[C@H]1c1ncc(-c2ccc(-c3nc(O)c4cc(-c5cnc([C@@H]6CCCN6C(=O)[C@@H](NC(=O)OC)C(C)C)[nH]5)ccc4n3)cc2)[nH]1)C(C)C [Example 15] , IC50 = 194

Lab entry: 1a-H77 replicon cells assay, compound COC(=O)N[C@H](C(=O)N1CCC[C@H]1c1nc(-c2ccc3cc(-c4ccc(-c5cnc([C@@H]6CCCN6C(=O)[C@@H](NC(=O)OC)C(C)C)[nH]5)cc4)ccc3n2)c[nH]1)C(C)C [Example 13] , IC50 = 78.1

Lab entry: 1a-H77 replicon cells assay, compound COC(=O)N[C@H](C(=O)N1CCC[C@H]1c1ncc(-c2ccc(-c3ncc4cc(-c5cnc([C@@H]6CCCN6C(=O)[C@@H](NC(=O)OC)C(C)C)[nH]5)ccc4n3)cc2)[nH]1)C(C)C [Example 1] , IC50 = 36

Lab entry: 1a-H77 replicon cells assay, compound COC(=O)N[C@H](C(=O)N1CCC[C@H]1c1nc(-c2ccc(-c3nc4ccc(-c5c[nH]c([C@@H]6CCCN6C(=O)[C@@H](NC(=O)OC)C(C)C)n5)cc4nc3O)cc2)c[nH]1)C(C)C [Example 18] , IC50 = 536

Lab entry: 1a-H77 replicon cells assay, compound COC(=O)N[C@H](C(=O)N1CCC[C@H]1c1nc(-c2ccc3nc(-c4ccc(-c5cnc([C@@H]6CCCN6C(=O)[C@@H](NC(=O)OC)C(C)C)[nH]5)cc4)cc(C#N)c3c2)c[nH]1)C(C)C [Example 23] , IC50 = 5450

Lab entry: 1a-H77 replicon cells assay, compound COC(=O)N[C@H](C(=O)N1CCC[C@H]1c1ncc(-c2ccc3cc(-c4cnc(-c5cnc([C@@H]6CCCN6C(=O)[C@@H](NC(=O)OC)C(C)C)[nH]5)cn4)ccc3c2)[nH]1)C(C)C [Example 24] , IC50 = 19900

Lab entry: 1a-H77 replicon cells assay, compound COC(=O)N[C@H](C(=O)N1CCC[C@H]1c1ncc(-c2ccc(-c3cnc4cc(-c5cnc([C@@H]6CCCN6C(=O)[C@@H](NC(=O)OC)C(C)C)[nH]5)cnc4n3)cc2)[nH]1)C(C)C [Example 14] , IC50 = 882

====

# Tested on: 1a-H77 replicon cells
# test_name: HCV 1a replicon inhibitory activity (Renilla luciferase)
# Type: cell-based, hepatitis C virus
# condition_details: Hepatitis C virus, 48 h, read-out: IC50 value (95% Confidence Intervals) pM Replicon 1A assay
Where a name gives a salt, the structure may show the parent alone.
Assign IC50 to each entry below.
Kindly provide the numeric value in pM only, without the unit symbol.

Short answer for COC(=O)N[C@H](C(=O)N1CCC[C@H]1c1nc(-c2ccc(-c3cnc4cc(-c5cnc([C@@H]6CCCN6C(=O)CNC(=O)c6cc(C)on6)[nH]5)ccc4n3)cc2)c[nH]1)C(C)C [Example 42, trifluoroacetic acid salt] : IC50 was 2870

Short answer for COC(=O)N[C@H](C(=O)N1CCC[C@H]1c1nc(-c2ccc(-c3cnc4cc(-c5cnc([C@@H]6CCCN6C(=O)[C@@H](C)NC(C)=O)[nH]5)ccc4n3)cc2)c[nH]1)C(C)C [Example 46, trifluoroacetic acid salt] : IC50 was 803

Short answer for COC(=O)N[C@H](C(=O)N1CCC[C@H]1c1nc(-c2ccc(-c3cnc4cc(-c5cnc([C@@H]6CCCN6C(=O)[C@@H](NC(=O)OC)C(C)(C)C)[nH]5)ccc4n3)cc2)c[nH]1)C(C)C [Example 70, trifluoroacetic acid salt] : IC50 was 9.13

Short answer for COC(=O)N[C@H](C(=O)N1CCC[C@H]1c1nc(-c2ccc(-c3cnc4cc(-c5cnc([C@@H]6CCCN6C(=O)[C@H](NC(=O)OC)c6ccccc6)[nH]5)ccc4n3)cc2)c[nH]1)C(C)C [Example 84, trifluoroacetic acid salt] : IC50 was 19
